Entry source: ChEMBL document CHEMBL5291721

# experimentalSystem: Acetylcholinesterase (Homo sapiens); further: assay procedure not described here
# Sequence (P22303 whole entry): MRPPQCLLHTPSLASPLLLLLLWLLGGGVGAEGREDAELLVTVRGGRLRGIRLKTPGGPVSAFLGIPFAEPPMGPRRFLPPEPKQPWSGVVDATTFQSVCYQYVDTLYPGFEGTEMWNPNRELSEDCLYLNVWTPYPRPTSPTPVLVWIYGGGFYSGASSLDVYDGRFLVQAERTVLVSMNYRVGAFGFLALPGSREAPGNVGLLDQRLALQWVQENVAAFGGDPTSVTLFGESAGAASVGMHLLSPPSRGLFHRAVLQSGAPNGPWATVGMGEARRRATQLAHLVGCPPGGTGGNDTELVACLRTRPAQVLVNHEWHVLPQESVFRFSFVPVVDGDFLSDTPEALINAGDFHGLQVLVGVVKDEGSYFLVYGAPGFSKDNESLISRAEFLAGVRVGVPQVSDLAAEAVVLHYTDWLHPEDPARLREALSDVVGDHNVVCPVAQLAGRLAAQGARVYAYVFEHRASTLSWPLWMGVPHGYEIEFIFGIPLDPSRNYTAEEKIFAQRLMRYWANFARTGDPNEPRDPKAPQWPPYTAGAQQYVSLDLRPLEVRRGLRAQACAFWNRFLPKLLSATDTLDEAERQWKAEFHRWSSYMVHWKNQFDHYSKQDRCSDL
# Format: functional
// reported AC50 per item

- molecule: "C[N+](C)(CCCCCC[N+](C)(C)C1c2ccccc2-c2ccccc21)C1c2ccccc2-c2ccccc21"
  AC50: "0.171 µM"
- molecule: "O=C(O)Cc1ccccc1Oc1ccc(Cl)cc1Cl"
  AC50: "> 30 µM"
- molecule: "O=C(O)P(=O)(O)O"
  AC50: "> 30 µM"
- molecule: "COC(=O)[C@H]1[C@H]2C[C@@H]3c4[nH]c5cc(OC)ccc5c4CCN3C[C@H]2C[C@@H](OC(=O)c2cc(OC)c(OC)c(OC)c2)[C@@H]1OC"
  AC50: "> 30 µM"
- molecule: "N=C(N)N/N=C/c1c(Cl)cccc1Cl"
  AC50: "> 30 µM"
- molecule: "COc1ccc(OC)c(C(O)C(C)N)c1 (configuration not stated)"
  AC50: "> 30 µM"
- molecule: "CC(C)NC(=N)NC(=N)Nc1ccc(Cl)c(Cl)c1"
  AC50: "> 30 µM"
